Molecular target: human brain-derived dopamine D4 receptor (Homo sapiens)
Construct: expressed in transfected cells; host or cells: CHO (CHO-K1) or HEK293 cells
Test: Agonistic activity in G protein dependent pathway of dopamine D4 receptor (aequorin intracellular calcium luminescence, FDSS)
Type: cell-based
Settings: read-out: Maximal activity on D4 receptor (%)
Reported Endpoint: Emax (%)
Give bare numbers, in %.

| Chemical Smiles | Tgt | Reported Endpoint | Observed Value |
| --- | --- | --- | --- |
| Cc1cccnc1-c1cc2n(n1)CCN(Cc1ccc(CF)nc1)C2 | human brain-derived dopamine D4 receptor (Homo sapiens) | Emax | 47 |
| Cc1cccnc1-c1cc2n(n1)CCN(Cc1cc3c(cn1)CCC3)C2 | human brain-derived dopamine D4 receptor (Homo sapiens) | Emax | 43 |
| Cc1cccnc1-c1cc2n(n1)CCN(Cc1cnc(C(F)(F)F)nc1N)C2 | human brain-derived dopamine D4 receptor (Homo sapiens) | Emax | 68 |
| Cc1c(-c2ncccc2F)nn2c1CN(Cc1ccc3c(n1)CCC3)CC2 | human brain-derived dopamine D4 receptor (Homo sapiens) | Emax | 98 |

The following molecules each have a reported value; give each one's Emax.
1. c1ccc(-c2cc3n(n2)CCN(Cc2ccc4[nH]ncc4c2)C3)nc1
2. Cc1cccnc1-c1cc2n(n1)CCN(Cc1ccc(C(F)F)nc1)C2
3. Cc1cccnc1-c1cc2n(n1)CCN(Cc1ncc(Br)cc1F)C2
4. Cc1cc(CN2CCn3nc(-c4ncccc4C)cc3C2)cnc1C
5. c1ccc(-c2cc3n(n2)CCN(Cc2ccc4cn[nH]c4c2)C3)nc1

65
49
49
63
62

====

Target: human brain-derived dopamine D4 receptor (Homo sapiens, UniProt P21917)
Construct: expressed in transfected cells; host or cells: CHO (CHO-K1) or HEK293 cells
Sequence (P21917 whole entry): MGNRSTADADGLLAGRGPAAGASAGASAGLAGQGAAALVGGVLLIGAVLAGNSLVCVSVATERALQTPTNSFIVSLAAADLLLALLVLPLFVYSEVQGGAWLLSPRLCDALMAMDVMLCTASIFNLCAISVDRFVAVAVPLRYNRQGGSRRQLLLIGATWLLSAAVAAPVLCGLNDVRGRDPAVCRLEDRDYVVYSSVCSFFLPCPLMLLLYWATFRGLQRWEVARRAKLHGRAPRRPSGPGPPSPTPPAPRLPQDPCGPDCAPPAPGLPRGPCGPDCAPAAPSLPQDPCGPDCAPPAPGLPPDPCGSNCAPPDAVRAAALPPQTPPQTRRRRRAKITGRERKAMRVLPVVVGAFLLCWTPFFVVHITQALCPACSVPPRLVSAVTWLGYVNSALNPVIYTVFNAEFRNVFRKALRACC
Assay: Agonistic activity in G protein dependent pathway of dopamine D4 receptor (aequorin intracellular calcium luminescence, FDSS)
Assay type: cell-based
Details: read-out: Maximal activity on D4 receptor (%)
Reported Endpoint: Emax
Dear colleague, please send the value followed by its unit.

Solved entries:
| Chemical Smiles | Tgt | Emax |
| --- | --- | --- |
| Fc1ccc(CN2CCCn3nc(-c4ccccn4)cc3C2)cc1 | human brain-derived dopamine D4 receptor (Homo sapiens, UniProt P21917) | 34% |
| FC(F)(F)c1c(-c2ccccn2)nn2c1CN(Cc1ccccc1)CC2 | human brain-derived dopamine D4 receptor (Homo sapiens, UniProt P21917) | 50% |
| Fc1cccnc1-c1cc2n(n1)CCN(Cc1ccc(C(F)(F)F)nc1)C2 | human brain-derived dopamine D4 receptor (Homo sapiens, UniProt P21917) | 62% |
| Cn1nc(CN2CCn3nc(-c4ncccc4F)cc3C2)c2ccccc21 | human brain-derived dopamine D4 receptor (Homo sapiens, UniProt P21917) | 69% |
| Cn1nc(CN2CCn3nc(-c4ncccc4C(F)(F)F)cc3C2)c2ccccc21 | human brain-derived dopamine D4 receptor (Homo sapiens, UniProt P21917) | 57% |

Hi team, please reply with Emax for each item in this list.
1. Fc1cccnc1-c1cc2n(n1)CCN(Cc1ccc(C(F)(F)F)cc1)C2
2. Cc1ccc(CN2CCn3nc(-c4ccccn4)c(C)c3C2)nc1
3. Cc1ccc(CN2CCn3nc(-c4ncccc4C)cc3C2)c(N)n1
4. Cc1cccnc1-c1cc2n(n1)CCN(Cc1ccc(F)cc1)C2

1. 64%
2. 99%
3. 77%
4. 81%
